Below, each entry is listed with its recorded binding signal.
- tested-system: dAsCas12a Ultra (Acidaminococcus sp., UniProt U2UMQ6 1-1307, M537R;F870L;D908A;E993A;D1235A)
- method-summary: Spec-seq (native PAGE EMSA with sequencing of bound and unbound); 25 mM Tris-HCl pH 7.4, 150 mM KCl, 5 mM MgCl2, 10% glycerol, 1 mM DTT, 40 ng/uL salmon sperm DNA; 400 nM Cas12a, 480 nM crRNA, 50 nM library, 37 C 1 h; native PAGE at room temperature; high values mean tight binding
- details: protein: recombinant
Respond with the bare value in lnKA.

# count of solved cases: 4
- binder: "GTTT (dsDNA) DNA 1: GCTATCTAGTGCTCAGTACGCACTGGTTTAGGAAACTTCTGGCAGGACCAGGTCATGAGATCGGAAGAGCACACGTCTGAACTCCAGTCA DNA 2: TGACTGGAGTTCAGACGTGTGCTCTTCCGATCTCATGACCTGGTCCTGCCAGAAGTTTCCTAAACCAGTGCGTACTGAGCACTAGATAGC RNA: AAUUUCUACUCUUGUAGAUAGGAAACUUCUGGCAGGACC"
  binding signal (lnKA): -7.18
- binder: "TCGA (dsDNA) DNA 1: GCTATCTAGTGCTCAGTACGCACTGTCGAAGGAAACTTCTGGCAGGACCAGGTCATGAGATCGGAAGAGCACACGTCTGAACTCCAGTCA DNA 2: TGACTGGAGTTCAGACGTGTGCTCTTCCGATCTCATGACCTGGTCCTGCCAGAAGTTTCCTTCGACAGTGCGTACTGAGCACTAGATAGC RNA: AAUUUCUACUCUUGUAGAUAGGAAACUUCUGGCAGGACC"
  binding signal (lnKA): -8.77
- binder: "ATTC (dsDNA) DNA 1: GCTATCTAGTGCTCAGTACGCACTGATTCAGGAAACTTCTGGCAGGACCAGGTCATGAGATCGGAAGAGCACACGTCTGAACTCCAGTCA DNA 2: TGACTGGAGTTCAGACGTGTGCTCTTCCGATCTCATGACCTGGTCCTGCCAGAAGTTTCCTGAATCAGTGCGTACTGAGCACTAGATAGC RNA: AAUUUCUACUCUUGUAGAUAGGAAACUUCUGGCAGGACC"
  binding signal (lnKA): -4.57
- binder: "GTTC (dsDNA) DNA 1: GCTATCTAGTGCTCAGTACGCACTGGTTCAGGAAACTTCTGGCAGGACCAGGTCATGAGATCGGAAGAGCACACGTCTGAACTCCAGTCA DNA 2: TGACTGGAGTTCAGACGTGTGCTCTTCCGATCTCATGACCTGGTCCTGCCAGAAGTTTCCTGAACCAGTGCGTACTGAGCACTAGATAGC RNA: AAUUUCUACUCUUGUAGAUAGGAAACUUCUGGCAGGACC"
  binding signal (lnKA): -4.74

Okay, now this binder:
Q) For the binder CTCC (dsDNA) DNA 1: GCTATCTAGTGCTCAGTACGCACTGCTCCAGGAAACTTCTGGCAGGACCAGGTCATGAGATCGGAAGAGCACACGTCTGAACTCCAGTCA DNA 2: TGACTGGAGTTCAGACGTGTGCTCTTCCGATCTCATGACCTGGTCCTGCCAGAAGTTTCCTGGAGCAGTGCGTACTGAGCACTAGATAGC RNA: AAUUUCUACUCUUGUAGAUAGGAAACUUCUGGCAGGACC , give its reported binding signal.
A) -8.67
